test system: Mycobacterium tuberculosis; assay: Antimycobacterial activity against multidrug resistant Mycobacterium tuberculosis H37Rv; assay type: functional
assay metric: MIC (µg/mL)
Reply numerically in µg/mL, unit not repeated.

1) CC(=O)N1N=C(c2ccc3oc(NC(=O)c4ccccc4)nc3c2)CC1c1cccs1 (stereo not drawn) | 12.5

Inquiry: Missing value: MIC, Mycobacterium tuberculosis, entry CC(=O)N1N=C(c2ccc3oc(N)nc3c2)CC1c1cccs1 (stereo not drawn) . Fill in?
Reply text: 6.25

Inquiry: Missing value: MIC, Mycobacterium tuberculosis, entry CC(=O)N1N=C(c2ccc3oc(-c4ccc(O)cc4)nc3c2)CC1c1cccs1 (stereo not drawn) . Fill in?
Reply text: 3.12

Inquiry: Missing value: MIC, Mycobacterium tuberculosis, entry COc1cccc(C(=O)Nc2nc3cc(C4=NN(C(C)=O)C(c5cccs5)C4)ccc3o2)c1 (stereo not drawn) . Fill in?
Reply text: 3.12

Inquiry: Missing value: MIC, Mycobacterium tuberculosis, entry NC(=O)N1N=C(c2ccc3oc(N)nc3c2)CC1c1cccs1 (stereo not drawn) . Fill in?
Reply text: 12.5

Inquiry: Missing value: MIC, Mycobacterium tuberculosis, entry CC(=O)N1N=C(c2ccc3oc(S)nc3c2)CC1c1cccs1 (stereo not drawn) . Fill in?
Reply text: 25

Inquiry: Missing value: MIC, Mycobacterium tuberculosis, entry NNC(=O)c1ccncc1 . Fill in?
Reply text: 6.25

Inquiry: Missing value: MIC, Mycobacterium tuberculosis, entry CC(=O)N1N=C(c2ccc3oc(NC(=O)CCl)nc3c2)CC1c1cccs1 (stereo not drawn) . Fill in?
Reply text: 3.12

* * *

test system: Mycobacterium tuberculosis; test: Antitubercular activity against extensively drug resistant Mycobacterium tuberculosis clinical isolate 7 by resazurin microtitre assay; type: functional
MIC listing for selected molecules.
Reply numerically in µg/mL, unit not repeated.

Inquiry: Need MIC, item CCN(CC)CCOc1c(C(=O)OC)c2c3c(oc2c2ccccc12)C(=O)c1ccccc1C3=O
Reply text: 0.19

Inquiry: Need MIC, item NNC(=O)c1ccncc1
Reply text: 6.25

Inquiry: Need MIC, item CN[C@@H]1[C@H](O[C@H]2[C@H](O[C@H]3[C@H](O)[C@@H](O)[C@H](N=C(N)N)[C@@H](O)[C@@H]3N=C(N)N)O[C@@H](C)[C@]2(O)C=O)O[C@@H](CO)[C@H](O)[C@H]1O
Reply text: 0.78

Inquiry: Need MIC, item CC[C@@H](CO)NCCN[C@@H](CC)CO
Reply text: 12.5

* * *

tested on: Mycobacterium tuberculosis; assay: Antitubercular activity against multidrug resistant Mycobacterium tuberculosis clinical isolate 11 by resazurin microtitre assay; format: functional
MIC listing for selected compounds.
Reply numerically in µg/mL, unit not repeated.

Observe how each entry below is paired with its result.
1) CC[C@@H](CO)NCCN[C@@H](CC)CO | 6.25
2) CCN(CC)CCOc1c(C(=O)OC)c2c3c(oc2c2ccccc12)C(=O)c1ccccc1C3=O | 0.39
3) NNC(=O)c1ccncc1 | 12.5
4) CO[C@H]1/C=C/O[C@@]2(C)Oc3c(C)c(O)c4c(O)c(c(/C=N/N5CCN(C)CC5)c(O)c4c3C2=O)NC(=O)/C(C)=C\C=C\[C@H](C)[C@H](O)[C@@H](C)[C@@H](O)[C@@H](C)[C@H](OC(C)=O)[C@@H]1C | 3.13

Inquiry: Need MIC, item CN[C@@H]1[C@H](O[C@H]2[C@H](O[C@H]3[C@H](O)[C@@H](O)[C@H](N=C(N)N)[C@@H](O)[C@@H]3N=C(N)N)O[C@@H](C)[C@]2(O)C=O)O[C@@H](CO)[C@H](O)[C@H]1O
Reply text: 3.13

The reported numbers originate from ChEMBL document CHEMBL5244273.
